These measurements were taken from patent US9580430B2.

# IC50 per entry
System: MDA-MB-436
Assay: Cell growth inhibition, MDA-MB-436 breast cancer cells (WST-8)
Format: cell-based
Details: Homo sapiens, MDA-MB-436, 96 h; 4 days; read-out: IC50 (nM) MDA-MB-436 Cell Line (WST assay)
Method: All the breast cancer cell lines were obtained from the ATCC. Cell viability was determined using the WST-8 (2-(2-methoxy-4-nitrophenyl)-3-(4-nitrophenyl)-5-(2,4-disulfophenyl)-2H-tetrazolium, monosodium salt) based Cell Counting-8 Kit (Dojindo Molecular Technologies, Inc., Rockville, Md.) according to the manufacture's instruction. […] The absorbance was measured at 450 nm using a SPECTRAmax PLUS plate reader (Molecular Devices, Sunnyvale, Calif.). […]
MEASUREMENT KIND: IC50 (nM)

COc1cc2c(cc1-c1c(C)noc1C)[nH]c1nc(C)nc(Nc3c(C)cnn3C(C)C)c12	56.2
COc1cc2c(cc1-c1c(C)noc1C)[nH]c1nc(C)nc(NC3CCCC3)c12	1100
COc1cc2c(cc1-c1c(C)noc1C)[nH]c1nc(C)nc(Nc3cn(C)nc3C3CC3)c12	75.1
COc1cc2c(cc1-c1c(C)noc1C)[nH]c1nc(C)nc(Nc3cc(C(F)(F)F)nn3C(C)(C)C)c12	177
COc1cc2c(cc1-c1c(C)noc1C)[nH]c1nc(C)nc(Nc3nn(C)cc3C)c12	351
COc1cc2c(cc1-c1c(C)noc1C)[nH]c1nc(C)nc(Nc3c(C)cnn3C3CC3)c12	511
COc1cc2c(cc1-c1c(C)noc1C)[nH]c1nc(C)nc(Nc3cc(C)nn3C(C)C)c12	29.6
CCn1nc(C)c(C2CC2)c1Nc1nc(C)nc2[nH]c3cc(-c4c(C)noc4C)c(OC)cc3c12	175
COc1cc2c(cc1-c1c(C)noc1C)[nH]c1nc(C)nc(Nc3ccc(F)c(Cl)c3)c12	229
COc1cc2c(cc1-c1c(C)noc1C)[nH]c1nc(C)nc(Nc3nn(C)c4ccc(F)cc34)c12	508
COc1cc2c(cc1-c1c(C)noc1C)[nH]c1nc(C)nc(Nc3c4c(nn3C)CCC4)c12	7.8
COc1cc2c(cc1-c1c(C)noc1C)[nH]c1nc(C)nc(Nc3nn(C)cc3C(C)C)c12	271
COc1cc2c(cc1-c1c(C)noc1C)[nH]c1nc(C)nc(Nc3cccc(C)n3)c12	1100
COc1cc2c(cc1-c1c(C)noc1C)[nH]c1nc(C)nc(Nc3nn(C)c4cc(F)ccc34)c12	535
COc1cc2c(cc1-c1c(C)noc1C)[nH]c1nc(C)nc(Nc3nn(C)c4c3CCCC4)c12	58.3
COc1cc2c(cc1-c1c(C)noc1C)[nH]c1nc(C)nc(Nc3ccc(OC)c4ccccc34)c12	235

---

// reported log10 IC50 per item
Target: recombinant BRD4 BD1 (Homo sapiens, UniProt O60885)
Construct: for recombinant BRD4 BD1 and BRD4 BD2 proteins
Test: Competitive fluorescence-polarization (FP) binding assay, BRD4 BD1
Details: FP competitive binding, BRD4 BD1; read-out: Binding affinities (FP) BRD4BD1 IC50
MEASUREMENT KIND: log10 IC50 (log10 of the value in nM)

CCn1nc(C2CC2)cc1Nc1nccc2[nH]c3cc(-c4c(C)noc4C)c(OC)cc3c12	1.28
COc1cc2c(cc1-c1c(C)noc1C)[nH]c1nc(C)nc(Nc3cc(C4CC4)nn3CC3COCCO3)c12 (stereo not shown)	0.79
COc1nc2c(cc1-c1c(C)noc1C)[nH]c1nc(C)nc(N(C)c3cc(C(C)(C)C)nn3C)c12	1.45
COc1cc2c(cc1-c1c(C)noc1C)[nH]c1cncc(Nc3cc(C4CC4)nn3C)c12	1.07
COc1nc2c(cc1-c1c(C)noc1C)[nH]c1nc(C)nc(N(C)c3nn(C)c4ncccc34)c12	1.54
COc1cc2c(cc1-c1c(C)noc1C)[nH]c1nc(C)nc(Nc3cc(C4CC4)nn3CCN3CCOCC3)c12	1.00
COc1c(-c2c(C)noc2C)cc2[nH]c3nc(C)nc(N(C)c4cc(C5CC5)nn4C)c3c2c1F	2.11
